Documented pIC50 across a set of compounds
target: MPS1 (Homo sapiens)
Sequence (P33981 2-857): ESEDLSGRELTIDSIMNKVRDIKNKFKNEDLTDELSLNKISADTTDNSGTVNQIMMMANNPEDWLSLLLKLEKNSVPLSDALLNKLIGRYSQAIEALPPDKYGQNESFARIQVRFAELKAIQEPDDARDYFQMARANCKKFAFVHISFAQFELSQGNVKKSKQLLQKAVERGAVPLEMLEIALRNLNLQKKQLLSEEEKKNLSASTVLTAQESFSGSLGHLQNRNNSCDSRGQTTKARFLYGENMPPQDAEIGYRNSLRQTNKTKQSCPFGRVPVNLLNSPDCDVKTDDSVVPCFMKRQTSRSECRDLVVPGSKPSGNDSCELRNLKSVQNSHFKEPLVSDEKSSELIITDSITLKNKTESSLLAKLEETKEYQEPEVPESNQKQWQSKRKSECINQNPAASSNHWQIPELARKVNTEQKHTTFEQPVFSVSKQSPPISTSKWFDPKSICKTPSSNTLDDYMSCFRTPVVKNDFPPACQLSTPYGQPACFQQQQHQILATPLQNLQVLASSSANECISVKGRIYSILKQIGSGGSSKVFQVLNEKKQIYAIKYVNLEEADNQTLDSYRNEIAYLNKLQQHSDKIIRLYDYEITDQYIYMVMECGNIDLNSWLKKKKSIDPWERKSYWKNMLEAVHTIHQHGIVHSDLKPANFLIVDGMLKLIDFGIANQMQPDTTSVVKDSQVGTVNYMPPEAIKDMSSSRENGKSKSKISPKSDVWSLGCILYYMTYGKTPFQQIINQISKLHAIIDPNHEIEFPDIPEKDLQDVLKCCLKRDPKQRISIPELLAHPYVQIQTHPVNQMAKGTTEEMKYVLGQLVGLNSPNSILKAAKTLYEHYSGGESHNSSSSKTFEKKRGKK
pIC50: −log10 of the molar value.
Assay metric: pIC50

> print(dat)
                                test.smiles        system.tested  meas.value
1  CCc1cccc(CC)c1NC(=O)c1cc(-c2nc(Nc3ccc(C(=O)N4CCC(N(C)C)CC4)cc3C)ncc2C)n(C)c1  MPS1 (Homo sapiens)        7.17
2  CCc1cccc(CC)c1NC(=O)c1cc(-c2ccnc(Nc3ccc(C(=O)N(C)C)cc3C)n2)n(C)c1  MPS1 (Homo sapiens)        7.39
3  CCc1cccc(CC)c1NC(=O)c1cc(-c2nc(Nc3ccc(C(N)=O)cc3C)ncc2Cl)n(C)c1Cl  MPS1 (Homo sapiens)        7.66
4  CCc1cccc(CC)c1NC(=O)c1cc(-c2ccnc(Nc3ccc(N(C)CCCN(C)C)cc3OC)n2)n(C)c1  MPS1 (Homo sapiens)        6.96
5  COc1cc(N2CCN(C)CC2)ccc1Nc1nccc(-c2cc(C(=O)Nc3c(C)cccc3Cl)cn2C)n1  MPS1 (Homo sapiens)        7.08
